Recorded abundance fitness, one value per entry.
B1: POU domain, class 2, transcription factor 3, residues 186 to 260; numbered along this chain, Q9UKI9 (parent)
chain: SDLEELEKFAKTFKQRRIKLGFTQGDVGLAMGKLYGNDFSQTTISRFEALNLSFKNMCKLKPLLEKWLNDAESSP

- Variants of: B1
- Assay Remarks: abundance fitness (aPCA) (normalised: wild type 0, dead -1); higher = more abundant; growth selection in yeast, the domain comes from the species named
- Condition Notes: Homo sapiens
Property: abundance fitness

{"Variant String": "L64W", "Property": "abundance fitness", "Numeric Value": -0.981}
{"Variant String": "C58W", "Property": "abundance fitness", "Numeric Value": 0.032}
{"Variant String": "I18N", "Property": "abundance fitness", "Numeric Value": -0.146}
{"Variant String": "G21V", "Property": "abundance fitness", "Numeric Value": -0.683}
{"Variant String": "E72N", "Property": "abundance fitness", "Numeric Value": -0.002}
{"Variant String": "F9V", "Property": "abundance fitness", "Numeric Value": -0.441}
{"Variant String": "P75G", "Property": "abundance fitness", "Numeric Value": 0.011}
{"Variant String": "E65I", "Property": "abundance fitness", "Numeric Value": 0.023}
{"Variant String": "K61V", "Property": "abundance fitness", "Numeric Value": -0.065}
{"Variant String": "P62C", "Property": "abundance fitness", "Numeric Value": -0.201}
{"Variant String": "I18F", "Property": "abundance fitness", "Numeric Value": -0.266}
{"Variant String": "S74Y", "Property": "abundance fitness", "Numeric Value": -0.107}
{"Variant String": "F54I", "Property": "abundance fitness", "Numeric Value": -0.006}
{"Variant String": "P62I", "Property": "abundance fitness", "Numeric Value": -0.082}
{"Variant String": "K59P", "Property": "abundance fitness", "Numeric Value": -0.733}
{"Variant String": "E65W", "Property": "abundance fitness", "Numeric Value": -0.211}
{"Variant String": "A49K", "Property": "abundance fitness", "Numeric Value": -0.315}
{"Variant String": "L64R", "Property": "abundance fitness", "Numeric Value": -0.83}
{"Variant String": "S45M", "Property": "abundance fitness", "Numeric Value": -0.037}
{"Variant String": "L68P", "Property": "abundance fitness", "Numeric Value": -0.749}
{"Variant String": "S1F", "Property": "abundance fitness", "Numeric Value": -0.062}
{"Variant String": "I44V", "Property": "abundance fitness", "Numeric Value": -0.045}
{"Variant String": "W67H", "Property": "abundance fitness", "Numeric Value": -0.44}
{"Variant String": "L60W", "Property": "abundance fitness", "Numeric Value": -0.074}
{"Variant String": "L52G", "Property": "abundance fitness", "Numeric Value": -0.149}
{"Variant String": "P75H", "Property": "abundance fitness", "Numeric Value": -0.044}
{"Variant String": "N69Q", "Property": "abundance fitness", "Numeric Value": 0.033}
{"Variant String": "K66M", "Property": "abundance fitness", "Numeric Value": -0.157}
{"Variant String": "K59I", "Property": "abundance fitness", "Numeric Value": -0.037}
{"Variant String": "I44H", "Property": "abundance fitness", "Numeric Value": -1.02}
{"Variant String": "E72T", "Property": "abundance fitness", "Numeric Value": -0.078}
{"Variant String": "I18S", "Property": "abundance fitness", "Numeric Value": -0.072}

Values compiled from the Human Domainome abundance scans (Beltran et al. 2025).
